systemName: Polyamine deacetylase HDAC10 (Homo sapiens)
Sequence (Q969S8 whole entry): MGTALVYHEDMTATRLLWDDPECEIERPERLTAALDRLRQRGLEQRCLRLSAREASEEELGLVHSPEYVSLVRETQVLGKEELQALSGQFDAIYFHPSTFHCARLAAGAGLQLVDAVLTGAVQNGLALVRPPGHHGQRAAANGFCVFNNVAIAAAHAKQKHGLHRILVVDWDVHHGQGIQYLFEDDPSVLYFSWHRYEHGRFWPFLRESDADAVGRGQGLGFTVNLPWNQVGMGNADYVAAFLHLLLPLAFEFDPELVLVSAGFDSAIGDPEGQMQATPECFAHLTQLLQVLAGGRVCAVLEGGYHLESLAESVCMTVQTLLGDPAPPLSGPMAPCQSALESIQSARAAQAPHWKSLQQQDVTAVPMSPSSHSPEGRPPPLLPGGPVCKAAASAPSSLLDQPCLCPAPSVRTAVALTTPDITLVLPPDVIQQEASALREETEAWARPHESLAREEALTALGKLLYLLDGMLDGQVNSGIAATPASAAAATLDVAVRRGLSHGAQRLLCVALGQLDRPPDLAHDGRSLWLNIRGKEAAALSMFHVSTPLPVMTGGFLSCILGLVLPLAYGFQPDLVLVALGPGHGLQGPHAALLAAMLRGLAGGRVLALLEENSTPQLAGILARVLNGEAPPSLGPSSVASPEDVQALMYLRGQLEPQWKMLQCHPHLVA
test: Inhibition of C-terminal 6His-tagged HDAC10 (unknown origin) (632 to 669 residues) expressed in baculovirus infected Sf9 insect cells incubated for 17 hrs in presence of FAM-labeled acetylated peptide substrate by fluorescence assay
measureName: IC50

[Q] State the measured IC50 (Polyamine deacetylase HDAC10 (Homo sapiens)) of `Nc1ccccc1NC(=O)CCCCCCC(=O)Nc1cccc(-c2cn(-c3ccccc3)nn2)c1`
[A] > 30 µM

* * *

systemName: UniProt Q969S8
test: Inhibition of HDAC10 (unknown origin)
measureName: IC50

[Q] // Input: `COc1ccc(/C=C/C(=O)NO)c(-c2ccc(-c3ccccc3)cc2)c1` . Output its IC50 only.
[A] > 20 µM

* * *

test: Half life in human at 6 mg/m2, po
Assay type: ADME
measureName: half-life

[Q] // Input: `Nc1ccccc1NC(=O)c1ccc(CNC(=O)OCc2cccnc2)cc1` . Output its half-life only.
[A] 33.9 h

* * *

systemName: Protein deacetylase HDAC6 (Homo sapiens)
Sequence (Q9UBN7 whole entry): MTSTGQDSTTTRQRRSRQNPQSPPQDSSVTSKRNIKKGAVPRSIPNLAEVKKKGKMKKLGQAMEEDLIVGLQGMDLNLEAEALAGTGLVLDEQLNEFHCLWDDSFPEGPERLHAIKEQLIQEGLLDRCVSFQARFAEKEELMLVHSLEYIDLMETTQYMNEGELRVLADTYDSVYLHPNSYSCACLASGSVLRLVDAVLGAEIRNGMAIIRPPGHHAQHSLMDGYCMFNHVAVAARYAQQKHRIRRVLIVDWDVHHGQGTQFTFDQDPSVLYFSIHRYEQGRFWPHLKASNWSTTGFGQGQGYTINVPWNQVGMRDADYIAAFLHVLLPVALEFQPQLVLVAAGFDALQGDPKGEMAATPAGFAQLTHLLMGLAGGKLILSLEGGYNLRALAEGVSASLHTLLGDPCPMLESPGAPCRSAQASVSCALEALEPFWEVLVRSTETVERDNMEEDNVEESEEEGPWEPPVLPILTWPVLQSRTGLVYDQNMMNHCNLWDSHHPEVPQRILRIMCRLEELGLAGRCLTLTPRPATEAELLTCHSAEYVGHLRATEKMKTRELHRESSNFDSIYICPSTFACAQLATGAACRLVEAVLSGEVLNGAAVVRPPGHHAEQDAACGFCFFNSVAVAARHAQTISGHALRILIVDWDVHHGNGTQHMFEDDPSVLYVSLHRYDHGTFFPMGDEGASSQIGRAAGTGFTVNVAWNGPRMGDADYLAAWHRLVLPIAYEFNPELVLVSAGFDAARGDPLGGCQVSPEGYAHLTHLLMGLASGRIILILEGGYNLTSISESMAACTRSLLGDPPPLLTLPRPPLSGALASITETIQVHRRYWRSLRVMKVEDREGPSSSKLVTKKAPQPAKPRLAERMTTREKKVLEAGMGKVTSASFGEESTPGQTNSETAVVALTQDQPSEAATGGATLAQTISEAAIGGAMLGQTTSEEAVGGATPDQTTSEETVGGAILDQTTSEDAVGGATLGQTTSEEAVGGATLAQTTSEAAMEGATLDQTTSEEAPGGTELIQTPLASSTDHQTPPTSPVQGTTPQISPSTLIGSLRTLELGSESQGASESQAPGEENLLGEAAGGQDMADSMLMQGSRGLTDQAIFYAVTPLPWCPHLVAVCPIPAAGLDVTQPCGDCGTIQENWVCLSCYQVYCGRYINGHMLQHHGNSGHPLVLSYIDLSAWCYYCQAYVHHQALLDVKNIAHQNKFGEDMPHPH
test: Inhibition of full length 6His-tagged HDAC6 (unknown origin) expressed in baculovirus infected Sf9 insect cells incubated for 17 hrs in presence of FAM-labeled acetylated peptide substrate by fluorescence assay
pIC50: −log10 of the molar value.
measureName: pIC50

[Q] // Input: `Nc1ccccc1NC(=O)CCCCCCC(=O)Nc1cccc(-c2cn(-c3ccccc3)nn2)c1` . Output its pIC50 only.
[A] < 4.52

* * *

test: Lipophilicity, log P of compound by LC-MS/MS analysis
Assay type: physicochemical
conditionInfo: octanol/water
measureName: logP

[Q] // Input: `COc1ccc(Cn2ccc3ccc(C(=O)NO)cc32)cc1` . Output its logP only.
[A] 2.61

* * *

systemName: Histone deacetylase 1 (Homo sapiens, UniProt Q13547)
Sequence (Q13547 whole entry): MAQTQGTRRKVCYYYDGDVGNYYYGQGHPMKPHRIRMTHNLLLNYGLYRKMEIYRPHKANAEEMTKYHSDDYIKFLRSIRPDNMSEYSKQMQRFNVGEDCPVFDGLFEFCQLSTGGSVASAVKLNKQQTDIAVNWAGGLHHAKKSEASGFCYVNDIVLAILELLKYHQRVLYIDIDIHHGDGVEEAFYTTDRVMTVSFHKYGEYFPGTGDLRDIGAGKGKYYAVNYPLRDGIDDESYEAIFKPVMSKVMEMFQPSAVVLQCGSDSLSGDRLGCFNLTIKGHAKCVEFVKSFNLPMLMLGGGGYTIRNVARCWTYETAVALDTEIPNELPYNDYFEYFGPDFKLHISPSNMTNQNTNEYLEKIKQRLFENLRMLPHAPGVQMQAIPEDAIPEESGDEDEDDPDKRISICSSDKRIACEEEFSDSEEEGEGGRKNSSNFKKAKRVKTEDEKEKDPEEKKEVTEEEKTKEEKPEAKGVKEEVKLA
test: Inhibition of human full length C-terminal His/FLAG-tagged HDAC1 expressed in baculovirus infected Sf9 insect cells preincubated for 2 hrs followed by Fluor-de-Lys substrate addition measured after 30 mins by fluorescence assay
Format: cell-based
measureName: IC50 (µM)
Number only, in µM; omit the unit.

[Q] State the measured IC50 (Histone deacetylase 1 (Homo sapiens, UniProt Q13547)) of `Nc1ccccc1NC(=O)CCCCCC(=O)Nc1ccccc1`
[A] 0.199
